- assay_comment: Swelling of tablets made with various acids as the acid filler, Example 2
- Format: physicochemical
- settings: 4 Week at 40° C.
readout_type: Swelling of the tablet using the acid as the filler

Briefly, Swelling of the tablet using the acid as the filler measured for O=C(O)CC(=O)O : Weeping

Briefly, Swelling of the tablet using the acid as the filler measured for O=C(O)CC(O)C(=O)O (stereo not shown) : ~5%

Briefly, Swelling of the tablet using the acid as the filler measured for CC(O)C(=O)O (stereo not shown) : Weeping
